Target: Dihydrofolate reductase (Homo sapiens)
Sequence (P00374 whole entry): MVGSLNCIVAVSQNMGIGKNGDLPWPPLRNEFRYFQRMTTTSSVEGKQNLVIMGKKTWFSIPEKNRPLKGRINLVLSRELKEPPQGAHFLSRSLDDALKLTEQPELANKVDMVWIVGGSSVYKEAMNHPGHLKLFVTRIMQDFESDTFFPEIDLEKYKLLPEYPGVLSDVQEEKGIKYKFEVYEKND
quantity: pIC50
Numbers only, as −log10 of the molar value.

Incoming: Bench note: what pIC50 did O=C1N/C=C/c2cc(Br)c(c(Br)c2)Oc2cc(cc(Br)c2O)CCNC(=O)/C(=N/O)Cc2ccc(c(Br)c2)Oc2cc(cc(Br)c2O)C/C1=N\O show?
Outgoing: 5.61
